molecular target: UniProtKB Q96GW9; assay: inhibitors of human mitochondrial methionyl-tRNA synthetase – biochemical, radioactivity, round 2, selectivity assay for T. brucei MetRS inhibitor project, late-stage follow-up (AID 1053200); settings: recombinant human mitochondrial MetRS, [3H]Met aminoacylation; at 10 µM; stronger effect = higher value
Quantity: inhibition (%)

Solved entries:
CCN(CC)C(=O)C(=O)c1cn(CC(=O)Nc2cc(Oc3ccccc3)cc(C(F)(F)F)c2)c2ccccc12    21.1
CCN(CC)C(=O)C(=O)c1cn(CC(=O)Nc2cc(C)cc(C(F)(F)F)c2)c2ccccc12    20.9
CCN(CC)C(=O)C(=O)c1cn(CC(=O)Nc2cc(Cl)cc(C(F)(F)F)c2)c2ccccc12    17.4
CCN(CC)C(=O)C(=O)c1cn(CC(=O)Nc2cc(Br)cc(C(F)(F)F)c2)c2ccccc12    12.8

(I) CCN(CC)C(=O)C(=O)c1cn(CC(=O)Nc2cc(C(F)(F)F)cc(C(F)(F)F)c2)c2ccccc12
(II) CCN(CC)C(=O)C(=O)c1cn(CC(=O)Nc2cccc(C(F)(F)F)c2)c2cc(OC)ccc12
Task for the reader: decide whether I or II has the larger inhibition. Your answer should be the label of the entry you select.
I
(I: 9.77%, II: -1.37%)

* * *

target: Methionine--tRNA ligase, mitochondrial (Homo sapiens) (UniProt Q96GW9); experiment: inhibitors of human mitochondrial methionyl-tRNA synthetase – biochemical, radioactivity, round 2, selectivity assay for T. brucei MetRS inhibitor project, late-stage follow-up (AID 1053200); conditions: recombinant human mitochondrial MetRS, [3H]Met aminoacylation; inhibition; at 1 µM; stronger effect = higher value
Sequence (Q96GW9 whole entry, looked up): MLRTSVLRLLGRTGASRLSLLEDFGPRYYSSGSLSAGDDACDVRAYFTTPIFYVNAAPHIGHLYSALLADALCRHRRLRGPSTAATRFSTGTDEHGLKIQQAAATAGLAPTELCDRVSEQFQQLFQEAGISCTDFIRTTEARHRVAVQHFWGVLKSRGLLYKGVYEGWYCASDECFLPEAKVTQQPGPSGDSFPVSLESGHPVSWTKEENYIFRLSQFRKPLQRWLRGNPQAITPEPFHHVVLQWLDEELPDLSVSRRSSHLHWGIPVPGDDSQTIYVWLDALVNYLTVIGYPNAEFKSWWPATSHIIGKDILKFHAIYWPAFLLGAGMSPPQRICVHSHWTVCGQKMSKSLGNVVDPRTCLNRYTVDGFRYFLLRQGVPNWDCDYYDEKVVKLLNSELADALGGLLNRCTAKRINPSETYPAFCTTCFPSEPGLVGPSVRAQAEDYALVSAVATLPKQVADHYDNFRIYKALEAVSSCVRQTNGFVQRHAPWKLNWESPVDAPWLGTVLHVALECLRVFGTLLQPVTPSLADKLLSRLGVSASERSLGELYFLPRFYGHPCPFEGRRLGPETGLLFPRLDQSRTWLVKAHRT
Quantity: inhibition (%)

Solved entries:
CCN(CC)C(=O)C(=O)c1cn(CC(=O)Nc2cc(C(F)(F)F)cc(C(F)(F)F)c2)c2ccccc12    -3.97
CCN(CC)C(=O)C(=O)c1cn(CC(=O)Nc2cc(C)cc(C(F)(F)F)c2)c2ccccc12    -1.02
CCN(CC)C(=O)C(=O)c1cn(CC(=O)Nc2cc(Cl)cc(C(F)(F)F)c2)c2ccccc12    -6.78

(A) CCN(CC)C(=O)C(=O)c1cn(CC(=O)Nc2cccc(C(F)(F)F)c2)c2cc(OC)ccc12
(B) CCN(CC)C(=O)C(=O)c1cn(CC(=O)Nc2cc(Br)cc(C(F)(F)F)c2)c2ccccc12
(C) CCN(CC)C(=O)C(=O)c1cn(CC(=O)Nc2cc(Oc3ccccc3)cc(C(F)(F)F)c2)c2ccccc12
Sort ascending by inhibition. Enter labels, ranked according to the request.
B, A, C
(B: -17.3%, A: -8.82%, C: -2.76%)
